Attribution: patent US20260365646A1

SYSTEM: full length AKT E17K (Homo sapiens, UniProt P31749, E17K)
Construct: host or cells: HEK-293 (ATCC CRL-1573)
Sequence (P31749 whole entry E17K): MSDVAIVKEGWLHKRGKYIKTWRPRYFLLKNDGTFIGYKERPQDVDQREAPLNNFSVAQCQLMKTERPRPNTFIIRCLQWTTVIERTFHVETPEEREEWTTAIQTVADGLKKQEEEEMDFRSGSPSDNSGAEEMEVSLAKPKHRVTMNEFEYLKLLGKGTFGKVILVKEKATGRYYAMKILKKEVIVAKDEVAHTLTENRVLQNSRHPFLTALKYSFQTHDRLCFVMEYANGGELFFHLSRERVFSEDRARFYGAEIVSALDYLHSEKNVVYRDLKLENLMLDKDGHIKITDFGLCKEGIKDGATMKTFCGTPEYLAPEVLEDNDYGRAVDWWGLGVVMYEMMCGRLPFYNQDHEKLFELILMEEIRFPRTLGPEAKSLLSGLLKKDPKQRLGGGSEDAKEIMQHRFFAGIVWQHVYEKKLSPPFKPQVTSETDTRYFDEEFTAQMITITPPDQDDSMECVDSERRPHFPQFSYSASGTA
EXPERIMENT NOTES: NanoBRET Target Engagement (TE) Intracellular Kinase Assay
Format: cell-based
pEC50: −log10 of the molar value.
MEASUREMENT LABEL: pEC50

INSERT INTO measurements (molecule, readout_value) VALUES
  ('Nc1ncccc1-c1nc2ccc(-c3ccccc3)nc2n1-c1ccc(CN2CCC(N3CCCOc4c3c(=O)c4=O)CC2)cc1', '< 6.22'),
  ('COc1c(N2CCN(Cc3ccc(-n4c(-c5cccnc5N)nc5ccc(-c6ccccc6)nc54)cc3)CC2)c(=O)c1=O', '7.22 to 7.82'),
  ('COc1c(NC2CCC3(CC2)CCN(Cc2ccc(-n4c(-c5cccnc5N)nc5ccc(-c6ccccc6)nc54)cc2)C3)c(=O)c1=O (stereo not shown)', '7.22 to 7.82'),
  ('COc1c(N[C@@H]2CCN(Cc3ccc(-n4c(-c5cccnc5N)nc5ccc(-c6ccccc6)nc54)cc3)C2)c(=O)c1=O', '7.22 to 7.82'),
  ('COc1c(N2CCCC3(CCN(Cc4ccc(-n5c(-c6cccnc6N)nc6ccc(-c7ccccc7)nc65)cc4)C3)C2)c(=O)c1=O (stereo not shown)', '7.22 to 7.82'),
  ('COc1c(N2C3CCC2CN(Cc2ccc(-n4c(-c5cccnc5N)nc5ccc(-c6ccccc6)nc54)cc2)C3)c(=O)c1=O', '6.22 to 7.22'),
  ('Nc1ncccc1-c1nc2ccc(-c3ccccc3)nc2n1-c1ccc(CNc2c(O)c(=O)c2=O)cc1', '< 6.22');
